- System: HBV
- test protocol: HBV inhibition assay in HepAD38 cells (extracellular HBV DNA by direct qPCR)
- Format: cell-based
- test parameters: Hepatitis B virus, compound at 0.1 µM, 96 hours, relative to non-treated reference, read-out: Anti HBV Activity (conc µM)
reported property: inhibition at 0.1 µM

Task item: Report inhibition at 0.1 µM for O=C(Nc1ccc(F)c(Cl)c1)c1ccc2c(c1)S(=O)(=O)N([C@H]1CC[C@H](O)CC1)C(=O)N2 please.
Reply: > 50%

# return inhibition at 0.1 µM for each item in the list
1. O=C(Nc1cc(F)c(F)c(F)c1)c1ccc2c(c1)S(=O)(=O)N([C@H]1CCNC1)C(=O)N2
2. Cc1cc2c(cc1C(=O)Nc1cc(F)c(F)c(F)c1)S(=O)(=O)N([C@H]1CC[C@H](O)CC1)C(=O)N2
3. CN1CC[C@H](N2C(=O)Nc3ccc(C(=O)Nc4cc(F)c(F)c(F)c4)cc3S2(=O)=O)C1

Reply:
1. < 50%
2. > 50%
3. < 50%
